assay-text: chemical genetic growth profiling, strain panel (AID 1159580);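 also: tested at 20 µM; growth read once vehicle control cultures reached saturation at 30 °C; 1 = growth at the plate median or of vehicle wells; lower values mean less growth of the strain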
measurement-conditions: S. cerevisiae deletion strains, growth OD, locus YPR141C, strain kar3, stronger effect = lower value
Out of some 5,500 compounds screened, about 2,000 (36%) were called active. About 18% were inconclusive and are not listed. The list shows a part of the results.
Let's look at some molecules and their measured normalized growth.
# print the numeric value only

N#CC(O[C@@H]1O[C@H](CO[C@@H]2O[C@H](CO)[C@@H](O)[C@H](O)[C@H]2O)[C@@H](O)[C@H](O)[C@H]1O)c1ccccc1 (stereo not given in full) : 0.981

Q. Indicate the recorded normalized growth value for this molecule: COc1cc(N)c(Cl)cc1C(=O)NC1CCN(Cc2ccccc2)CC1
A. 0.986

Q. State its normalized growth for this molecule: Nc1ccccc1C(=O)CC(N)C(=O)O (stereo not given)
A. 0.992

====

assay-text: chemical genetic growth profiling, strain panel (AID 1159580)
measurement-conditions: S. cerevisiae deletion strains, growth OD, locus YOR070C, strain gyp1
About 2,000 (36%) of roughly 5,500 compounds were called active. Roughly 18% stayed inconclusive and do not appear here. Rule as the data show it: active = normalized growth mostly below about 0.91 (no sharp cut-off); inconclusive = no clear call, values can overlap the other calls; inactive = mostly above about 0.92. This is one part of the list.
Tick one outcome: active, inactive

CC(=O)NCc1c(I)c(NC(C)=O)c(I)c(C(=O)O)c1I : inactive
N=C(N)SCCN : inactive
OC(CCN1CCCCC1)(c1ccccc1)C1CCCCC1 (centres undefined) : inactive
CC(C)CC(N(C)C)C1(c2ccc(Cl)cc2)CCC1 (centres undefined) : inactive
COC(=O)Nc1nc2ccc(C(=O)c3ccccc3)cc2[nH]1 : inactive
Nc1c2ccccc2nc2ccccc12 (tested in a mixture with another compound) : active
OC(CCN1CCCCC1)(c1ccccc1)C1CC2C=CC1C2 (centres undefined) : inactive
Cc1ccc(-c2cc(C(F)(F)F)nn2-c2ccc(S(N)(=O)=O)cc2)cc1 : inactive

Q. Test call for this compound, please: COc1cccc2c1C(=O)c1c(O)c3c(c(O)c1C2=O)C[C@@](O)(C(=O)CO)C[C@@H]3OC1C[C@H](N)[C@H](O)[C@H](C)O1 (some centres undefined)
A. active

====

assay-text: chemical genetic growth profiling, strain panel (AID 1159580)
measurement-conditions: S. cerevisiae deletion strains, growth OD, locus YOR144C, strain elg1
In all, about 5,500 compounds went through this assay and about 2,000 (36%) were called active. About 18% were inconclusive and are not listed. Rule as the data show it: active = normalized growth mostly below about 0.91 (no sharp cut-off); inconclusive = no clear call, values can overlap the other calls; inactive = mostly above about 0.92. Some of the results follow.
Please state which outcome applies, choosing from active, inactive

Look over these answered cases.
N=C(N)c1ccc(OCCCCCOc2ccc(C(=N)N)cc2)cc1 : active
C[C@@H]1CC[C@H]2[C@@H](C)C(=O)O[C@@H]3O[C@@]4(C)CC[C@@H]1[C@]32OO4 : active
CCOP(=S)(OCC)Oc1nc(Cl)c(Cl)cc1Cl : inactive
Cc1cc(O)c2c(c1)Cc1cccc(O)c1C2=O : inactive
COc1cccc(OC)c1OCCNCC1COc2ccccc2O1 (stereo not given) : inactive

Q. GET /call?item= COc1ccc2c(c1)c(CC(=O)O)c(C)n2C(=O)c1ccc(Cl)cc1 returns the recorded outcome of this test.
A. inactive

Q. How was COC(=O)C[C@H]1C(C)(C)C(=O)[C@@H]2CC3C4=CC(=O)O[C@@H](c5ccoc5)[C@]4(C)CCC3[C@@]1(C)C2=O (stereo not given in full) classified in this test?
A. inactive

Q. What did the test return for CCOP(=S)(OCC)Oc1cc(C)nc(C(C)C)n1 ?
A. inactive

Q. Recorded test call requested for COc1ccc2c(c1)c(CC(=O)OCC(=O)O)c(C)n2C(=O)c1ccc(Cl)cc1
A. inactive

Q. Could you please tell me the result logged for CC(=O)NCc1c(I)c(NC(C)=O)c(I)c(C(=O)O)c1I in this assay?
A. inactive

====

assay-text: chemical genetic growth profiling, strain panel (AID 1159580)
measurement-conditions: S. cerevisiae deletion strains, growth OD, locus YDR195W, strain ref2
Screen size: about 5,500 compounds; about 2,000 (36%) were called active. Not shown: some 18% with an inconclusive outcome. Some of the results follow.
property: normalized growth
Form: value (number only, do not type unit).

COc1c(-c2coc3cc4c(cc3c2=O)CC(O)C(C)(C)O4)ccc2c1C=CC(C)(C)O2 (stereo unspecified) : 1.05
C#C[C@]1(OC(C)=O)CCC2C3CCC4=CC(=O)CC[C@@H]4C3CC[C@@]21C (stereo partly specified) : 0.978
O=C(Nc1ccc(C(=O)O)c(O)c1)c1ccccc1 : 0.952

Q. Using known records, supply normalized growth for COC1=C[C@@H]2[C@@H]3Cc4ccc(OC)c(O)c4[C@]2(CCN3C)CC1=O
A. 0.967

Q. Given CC(C)(Oc1ccc(CCNC(=O)c2ccc(Cl)cc2)cc1)C(=O)O , respond with its normalized growth.
A. 0.993

Q. Report normalized growth, nothing else, for this molecule: CC1(C)CC[C@]2(C)CC[C@]3(C)C(=CCC4[C@@]5(C)CC[C@H](O)C(C)(C)C5CC[C@]43C)C2C1 (stereo partly specified)
A. 0.965

Q. Give normalized growth for C#C[C@]1(O)CCC2C3CCC4=CC(=O)CC[C@@H]4C3CC[C@@]21CC (stereo partly specified)
A. 1.05

====

Quick reference: normalized growth of the listed items.
assay-text: chemical genetic growth profiling, strain panel (AID 1159580);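 also: tested at 20 µM; growth read once vehicle control cultures reached saturation at 30 °C; 1 = growth at the plate median or of vehicle wells; lower values mean less growth of the strain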
measurement-conditions: S. cerevisiae deletion strains, growth OD, locus YJL154C, strain vps35, stronger effect = lower value
Among all 5,500 compounds or so, about 2,000 (36%) were called active. Roughly 18% stayed inconclusive and do not appear here. The list shows a part of the results.

Known results for compounds:
CC(=O)NCc1c(I)c(NC(C)=O)c(I)c(C(=O)O)c1I : 1 (inactive)
COc1cc(C(=O)O[C@H]2CC[C@@]3(C)[C@@H]4CC[C@H]5[C@]6(O)C[C@H](O)[C@@]7(O)[C@@H](CN8C[C@@H](C)CC[C@H]8[C@@]7(C)O)[C@]6(O)C[C@@]53O[C@]24O)cc(OC)c1OC : 1.01 (inactive)
CNCc1ccccc1 : 1.03 (inactive)

Could you now consider this next compound?
Q. Look up and state reported normalized growth for NC12CC3CC(CC(C3)C1)C2
A. 0.998 (inactive)

====

normalized growth reference
assay-text: chemical genetic growth profiling, strain panel (AID 1159580);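 also: tested at 20 µM; growth read once vehicle control cultures reached saturation at 30 °C; 1 = growth at the plate median or of vehicle wells; lower values mean less growth of the strain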
measurement-conditions: S. cerevisiae deletion strains, growth OD, locus YML032C, strain rad52, stronger effect = lower value
Out of some 5,500 compounds screened, about 2,000 (36%) were called active. Not shown: some 18% with an inconclusive outcome. This is one part of the list.
Please reply with the number alone, leaving off any unit.

Cc1ccnc(NS(=O)(=O)c2ccc(N)cc2)n1 : 1.01
COc1cc(N)c(Cl)cc1C(=O)NC1CCN(Cc2ccccc2)CC1 : 0.969
Cc1ccc(S(=O)(=O)NC(=O)NN2CC3CCCC3C2)cc1 (configuration not stated) : 1.01
N=C(N)c1ccc(OCCCCCOc2ccc(C(=N)N)cc2)cc1 : 0.828
CC(C)CC(N(C)C)C1(c2ccc(Cl)cc2)CCC1 (configuration not stated) : 1.02

Q. # return recorded normalized growth for input NC12CC3CC(CC(C3)C1)C2
A. 1.01

Q. Provide only the value of recorded normalized growth for COc1cccc(OC)c1OCCNCC1COc2ccccc2O1 (configuration not stated)
A. 0.96

Q. Give normalized growth for the following compound: NCCC(=O)N[C@@H](Cc1cnc[nH]1)C(=O)O
A. 0.976

Q. Please report the measured normalized growth for O=C(O)/C=C1\CCCc2ccccc2C1O (configuration not stated)
A. 0.982

====

assay-text: chemical genetic growth profiling, strain panel (AID 1159580);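 also: tested at 20 µM; growth read once vehicle control cultures reached saturation at 30 °C; 1 = growth at the plate median or of vehicle wells; lower values mean less growth of the strain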
measurement-conditions: S. cerevisiae deletion strains, growth OD, locus YNL128W, strain TEP1, stronger effect = lower value
Screen size: about 5,500 compounds; about 2,000 (36%) were called active. Another 18% or so got no clear call; they are omitted. The list shows a part of the results.
property: normalized growth
# output: bare number, no unit

Some entries whose results are on file:
COC(=O)C[C@H]1C(C)(C)C(=O)[C@@H]2CC3C4=CC(=O)O[C@@H](c5ccoc5)[C@]4(C)CCC3[C@@]1(C)C2=O (stereo partly drawn) : 0.945
Cc1ccc(-c2cc(C(F)(F)F)nn2-c2ccc(S(N)(=O)=O)cc2)cc1 : 1.02
C#C[C@]1(OC(C)=O)CCC2C3CCC4=CC(=O)CC[C@@H]4C3CC[C@@]21C (stereo partly drawn) : 0.977
O=C(O)c1ccc(N=Cc2ccc3c(c2)OCO3)cc1 : 1.04
O=c1[nH]cc(F)c(=O)[nH]1 : 0.784
O=C(O)/C=C/C(=O)Nc1ccc(-n2nc(C(F)(F)F)cc2C(F)(F)F)cc1 : 1.02
COC(=O)Nc1nc2ccc(C(=O)c3cccs3)cc2[nH]1 : 0.73
O=[N+]([O-])c1cnc(Sc2n[nH]c(-c3cccs3)n2)s1 : 0.876

Q. Give normalized growth for COc1cc(N)c(Cl)cc1C(=O)NC1CCN(Cc2ccccc2)CC1
A. 0.984

Q. Give reported normalized growth value for NO
A. 0.998

Values compiled from PubChem BioAssay AID1159580.
